measurement_target: α1 GlyR (Homo sapiens, UniProt P23415)
Construct: expressed in transfected cells; host or cells: HEK293
Sequence (P23415 29-449 isoform P23415-2 limits assumed): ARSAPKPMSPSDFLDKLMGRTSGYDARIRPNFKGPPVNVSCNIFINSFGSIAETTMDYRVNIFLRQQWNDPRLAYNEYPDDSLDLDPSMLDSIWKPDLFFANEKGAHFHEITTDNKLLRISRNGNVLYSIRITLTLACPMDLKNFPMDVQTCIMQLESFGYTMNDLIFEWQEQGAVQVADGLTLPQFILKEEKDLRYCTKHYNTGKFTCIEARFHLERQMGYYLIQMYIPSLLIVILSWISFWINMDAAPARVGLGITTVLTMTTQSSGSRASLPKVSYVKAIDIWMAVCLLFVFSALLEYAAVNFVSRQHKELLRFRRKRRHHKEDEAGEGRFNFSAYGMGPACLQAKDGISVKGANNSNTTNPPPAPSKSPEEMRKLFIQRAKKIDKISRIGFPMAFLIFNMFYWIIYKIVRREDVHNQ
assay_name: Whole-cell patch-clamp of glycine-evoked currents, transfected HEK293 cells
Assay type: cell-based
conditions_used: GlyRs (α1 and α1β); single concentration 300 µM

- smiles_structure: "C=C[C@]12CN(C)[C@@H]3[C@H]4CO[C@H](C[C@H]41)[C@]1(C(=O)Nc4ccccc41)[C@@H]32"
  activity on GlyR currents (in words): "strong activity"
- smiles_structure: "C=C[C@@]12CN(C)[C@H]3C[C@]14C(=Nc1ccccc14)[C@H]1C[C@@H]2[C@@H]3CO1"
  activity on GlyR currents (in words): "strong activity"
- smiles_structure: "C=C[C@]12CN(C)[C@@H]3[C@H]4CO[C@H](C[C@H]41)[C@]1(C(=O)N(OC)c4ccccc41)[C@@H]32"
  activity on GlyR currents (in words): "strong activity"

* * *

Below is a list of entries, each paired with its recorded IC50 value.
measurement_target: α1β2γ2 GABAAR (Homo sapiens, UniProt P14867+P18507+P47870)
Sequence (P18507 40-475): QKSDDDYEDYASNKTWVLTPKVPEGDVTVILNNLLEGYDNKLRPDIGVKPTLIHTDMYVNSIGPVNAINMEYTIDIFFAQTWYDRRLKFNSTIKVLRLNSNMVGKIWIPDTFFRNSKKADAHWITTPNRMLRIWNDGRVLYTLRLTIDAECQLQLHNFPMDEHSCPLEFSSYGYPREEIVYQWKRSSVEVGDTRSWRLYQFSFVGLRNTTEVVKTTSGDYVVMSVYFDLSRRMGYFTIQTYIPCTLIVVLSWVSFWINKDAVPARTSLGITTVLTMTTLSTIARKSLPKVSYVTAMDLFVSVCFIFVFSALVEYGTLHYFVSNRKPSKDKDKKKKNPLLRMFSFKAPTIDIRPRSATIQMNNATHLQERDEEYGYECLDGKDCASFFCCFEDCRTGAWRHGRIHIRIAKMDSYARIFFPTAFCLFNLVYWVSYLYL
Sequence (P14867 28-456): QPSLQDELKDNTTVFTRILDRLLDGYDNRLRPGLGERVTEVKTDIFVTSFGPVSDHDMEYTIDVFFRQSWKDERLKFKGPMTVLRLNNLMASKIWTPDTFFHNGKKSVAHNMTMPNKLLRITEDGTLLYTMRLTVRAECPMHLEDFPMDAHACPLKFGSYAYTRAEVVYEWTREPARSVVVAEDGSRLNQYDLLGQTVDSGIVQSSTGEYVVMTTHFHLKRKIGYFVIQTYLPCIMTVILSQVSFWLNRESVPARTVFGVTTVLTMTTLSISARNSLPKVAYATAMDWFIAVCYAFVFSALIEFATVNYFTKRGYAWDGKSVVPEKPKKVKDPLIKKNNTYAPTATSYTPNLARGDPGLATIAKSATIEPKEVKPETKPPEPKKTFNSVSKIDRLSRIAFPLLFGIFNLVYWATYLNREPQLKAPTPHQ
Sequence (P47870 26-512): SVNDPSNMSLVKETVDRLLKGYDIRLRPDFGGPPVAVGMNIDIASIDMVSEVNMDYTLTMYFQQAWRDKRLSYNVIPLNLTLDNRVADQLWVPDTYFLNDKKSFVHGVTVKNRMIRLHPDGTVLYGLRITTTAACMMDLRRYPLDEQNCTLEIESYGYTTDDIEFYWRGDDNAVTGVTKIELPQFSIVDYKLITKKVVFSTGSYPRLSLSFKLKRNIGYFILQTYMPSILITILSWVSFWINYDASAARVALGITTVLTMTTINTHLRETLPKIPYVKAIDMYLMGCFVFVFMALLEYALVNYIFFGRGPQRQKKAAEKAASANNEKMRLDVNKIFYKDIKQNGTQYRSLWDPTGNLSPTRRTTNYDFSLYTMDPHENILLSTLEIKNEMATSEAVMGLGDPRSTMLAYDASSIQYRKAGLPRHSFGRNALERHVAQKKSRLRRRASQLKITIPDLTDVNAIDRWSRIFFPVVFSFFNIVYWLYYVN
assay_name: Whole-cell patch-clamp of GABA-evoked currents, transfected HEK293 cells
conditions_used: GABAAR; reduction of GABA-evoked current; n = 4
Numeric answer only, unit µM assumed.

- smiles_structure: "C=C[C@]12CN(C)[C@@H]3[C@H]4CO[C@H](C[C@H]41)[C@]1(C(=O)N(OC)c4ccccc41)[C@@H]32"
  IC50, µM: 252

# query: IC50 of entry C=C[C@]12CN(C)[C@@H]3[C@H]4CO[C@H](C[C@H]41)[C@]1(C(=O)Nc4ccccc41)[C@@H]32
171

* * *

measurement_target: α1 GlyR (Homo sapiens, UniProt P23415)
Construct: expressed in transfected cells; host or cells: HEK293
assay_name: Whole-cell patch-clamp of glycine-evoked currents, transfected HEK293 cells
Format: cell-based
conditions_used: α1GlyR; reduction of glycine-evoked current; n = 4; read-out: IC50
Below is a list of entries, each paired with its recorded pIC50 value.
Remember, pIC50 is on a log scale: it is -log10 of the molar concentration.

- smiles_structure: "C=C[C@]12CN(C)[C@@H]3[C@H]4CO[C@H](C[C@H]41)[C@]1(C(=O)N(OC)c4ccccc41)[C@@H]32"
  pIC50: 4.08

As a next step, examine the molecule that follows.
# query: pIC50 of entry C=C[C@@]12CN(C)[C@H]3C[C@]14C(=Nc1ccccc14)[C@H]1C[C@@H]2[C@@H]3CO1
5.02

* * *

Below is a list of entries, each paired with its recorded percentage change in peak current modulation value.
measurement_target: α1β GlyR (Homo sapiens)
Construct: expressed in transfected cells; host or cells: HEK293
Sequence (P23415 29-449 isoform P23415-2 limits assumed): as the sequence (P23415 29-449 isoform P23415-2 limits assumed) above
Sequence (P48167 23-497 partner): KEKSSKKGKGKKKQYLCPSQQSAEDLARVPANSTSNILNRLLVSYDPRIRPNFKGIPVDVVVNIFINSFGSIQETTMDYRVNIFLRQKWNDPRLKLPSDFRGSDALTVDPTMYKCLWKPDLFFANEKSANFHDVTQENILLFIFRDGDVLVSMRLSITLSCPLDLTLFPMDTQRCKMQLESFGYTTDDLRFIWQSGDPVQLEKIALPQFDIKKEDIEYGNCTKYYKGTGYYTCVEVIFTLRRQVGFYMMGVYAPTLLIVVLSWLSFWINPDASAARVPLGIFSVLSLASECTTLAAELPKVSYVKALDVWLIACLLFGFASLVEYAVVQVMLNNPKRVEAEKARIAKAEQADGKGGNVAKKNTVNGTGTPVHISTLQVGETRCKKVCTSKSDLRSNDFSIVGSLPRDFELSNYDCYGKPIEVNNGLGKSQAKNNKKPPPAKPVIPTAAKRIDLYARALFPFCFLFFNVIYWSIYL
assay_name: Whole-cell patch-clamp of glycine-evoked currents, transfected HEK293 cells
Assay type: cell-based
conditions_used: α1βGlyR; alkaloid 300 µM co-applied with subsaturated glycine; mean ± SE

- compound: "C=C[C@]12CN(C)[C@@H]3[C@H]4CO[C@H](C[C@H]41)[C@]1(C(=O)Nc4ccccc41)[C@@H]32 [Gelsemine, gelsemine]"
  reported_value: "−92.18% ± 2.87%"

# query: percentage change in peak current modulation of entry C=C[C@@]12CN(C)[C@H]3C[C@]14C(=Nc1ccccc14)[C@H]1C[C@@H]2[C@@H]3CO1 [Koumine, koumine]
−87.29% ± 0.52%

Field entry: CCC1=N[C@H]2C[C@@]3(C(=O)N(OC)c4ccccc43)[C@H]3C[C@@H]1[C@@H]2CO3 [Gelsenicine, gelsenicine]
−10.44% ± 5.99%

Field entry: C=C[C@]12CN(C)[C@@H]3[C@H]4CO[C@H](C[C@H]41)[C@]1(C(=O)N(OC)c4ccccc41)[C@@H]32 [Gelsevirine, gelsevirine]
−99.06% ± 0.62%
